Listing: MIC of selected compounds
system: N. gonorrhoeae WHO G; test: Liquid broth MIC in Fastidious broth; settings: Neisseria gonorrhoeae, read-out: Minimum Inhibitory Concentration (MIC), N. gonorrhoeae WHO G

Worked cases, MIC given:
> print(dat)
                                   compound  recorded.metric        reported
1  CN1CCCN(C(=O)NC(C(=O)N[C@H]2Cc3cccc(C(=O)O)c3OB2O)c2ccc(P(=O)(O)O)cc2)C1=O (stereo partly drawn) [Example 38]              MIC       < 1 µg/mL
2  CC(=O)N1CCC[C@@H]1C(=O)N[C@H](C(=O)N[C@H]1Cc2cccc(C(=O)O)c2OB1O)c1ccc(P(=O)(O)O)cc1 [Example 33]              MIC  16 to 32 µg/mL

Q: What measured MIC goes with N#Cc1cccc(C(=O)N[C@@H](C(=O)N[C@H]2Cc3cccc(C(=O)O)c3OB2O)c2ccc(P(=O)(O)O)cc2)n1 [Example 180] ?
Result: < 1 µg/mL

* * *

test system: P. aeruginosa ATCC 27853; experiment: microbe, parasite or virus in culture; assay type: cell-based; details: Pseudomonas aeruginosa, ATCC27853, read-out: Minimum inhibitory concentration, P. aeruginosa ATCC 27853
Listing: MIC of selected compounds

COMPOUND	MIC
O=C(NCCCN1CCN(C(=O)NC(C(=O)N[C@H]2Cc3ccc(F)c(C(=O)O)c3OB2O)c2cc(F)c(O)c(O)c2Cl)C(=O)C1=O)c1ccncc1 (stereo partly drawn)	< 1 µg/mL
O=C(NCCCN1CCN(C(=O)NC(C(=O)N[C@H]2Cc3ccc(F)c(C(=O)O)c3OB2O)c2cc(F)c(O)c(O)c2Cl)C(=O)C1=O)c1cc(O)ccc1F (stereo partly drawn)	< 1 µg/mL

Q: Form: Entry = O=C(O)c1c(F)ccc2c1OB(O)[C@@H](NC(=O)[C@H](NC(=O)N1CCN(C3CCN(C(=O)c4c(F)ccc(O)c4F)CC3)C1=O)c1cc(F)c(O)c(O)c1Cl)C2 (single isomer, unassigned) | System = P. aeruginosa ATCC 27853 | MIC = ____
Result: < 1 µg/mL

* * *

test system: N. gonorrhoeae WHO Z; assay: Liquid broth MIC in Fastidious broth; settings: Neisseria gonorrhoeae, read-out: Minimum Inhibitory Concentration (MIC), N. gonorrhoeae WHO Z
RECORDED_METRIC: MIC

Worked cases, MIC given:
COMPOUND	ASSAYED_SYSTEM	MIC
O=C(CN1CCN(C(=O)N[C@@H](C(=O)N[C@H]2Cc3ccc(F)c(C(=O)O)c3OB2O)c2cc(F)c(O)c(O)c2Cl)C(=O)C1=O)NCc1ccncc1	N. gonorrhoeae WHO Z	16 to 32 µg/mL
O=C(O)c1cccc2c1OB(O)[C@@H](NC(=O)C(NC(=O)c1cnc[nH]c1=O)c1ccc(P(=O)(O)O)cc1)C2 (stereo partly shown)	N. gonorrhoeae WHO Z	16 to 32 µg/mL
O=C(O)c1cccc2c1OB(O)[C@@H](NC(=O)[C@@H](NC(=O)N1CCNC1=O)c1ccc(P(=O)(O)O)cc1)C2	N. gonorrhoeae WHO Z	1 to 2 µg/mL
O=C(NCCN1CCN(C(=O)NC(C(=O)N[C@H]2Cc3ccc(F)c(C(=O)O)c3OB2O)c2cc(F)c(O)c(O)c2Cl)C(=O)C1=O)Nc1cccc(O)c1 (stereo partly shown)	N. gonorrhoeae WHO Z	> 64 µg/mL
O=C(CN1CCN(C(=O)NC(C(=O)N[C@H]2Cc3ccc(F)c(C(=O)O)c3OB2O)c2cc(F)c(O)c(O)c2Cl)C(=O)C1=O)Nc1cccnc1 (stereo partly shown)	N. gonorrhoeae WHO Z	16 to 32 µg/mL
O=C(O)c1cccc2c1OB(O)[C@@H](NC(=O)C(NC(=O)C1CC1)c1ccc(P(=O)(O)O)cc1)C2 (stereo partly shown)	N. gonorrhoeae WHO Z	16 to 32 µg/mL

Q: What measured MIC goes with CC(=O)NC(C(=O)N[C@H]1Cc2cccc(C(=O)O)c2OB1O)c1ccc(P(=O)(O)O)cc1 (stereo partly shown) ?
Result: 16 to 32 µg/mL

Q: Same again, this time with CC(C)(C)C(=O)NC(C(=O)N[C@H]1Cc2cccc(C(=O)O)c2OB1O)c1ccc(P(=O)(O)O)cc1 (stereo partly shown)
Result: 16 to 32 µg/mL

* * *

test system: A. baumannii CDC-0033; experiment: microbe, parasite or virus in culture; type: cell-based; settings: Acinetobacter baumannii, CDC0033, read-out: MIC, A. baumannii CDC-0033
RECORDED_METRIC: MIC

Worked cases, MIC given:
COMPOUND	ASSAYED_SYSTEM	RECORDED_METRIC	REPORTED
O=C(NCCN1CCN(C(=O)NC(C(=O)N[C@H]2Cc3ccc(F)c(C(=O)O)c3OB2O)c2cc(F)c(O)c(O)c2Cl)C1=O)Nc1ccncc1 (some centres unmarked) [Example 250]	A. baumannii CDC-0033	MIC	2 to 4 µg/mL
O=C(NCCCS(=O)(=O)N1CCN(C(=O)N[C@@H](C(=O)N[C@H]2Cc3ccc(F)c(C(=O)O)c3OB2O)c2cc(F)c(O)c(O)c2Cl)C1=O)c1cccc(O)c1 [Example 271]	A. baumannii CDC-0033	MIC	2 to 4 µg/mL
O=C(NCCCN1CCN(C(=O)NC(C(=O)N[C@H]2Cc3ccc(F)c(C(=O)O)c3OB2O)c2cc(F)c(O)c(O)c2Cl)C(=O)C1=O)c1cccc(O)c1 (some centres unmarked) [Example 204]	A. baumannii CDC-0033	MIC	2 to 4 µg/mL
O=C(O)c1c(F)ccc2c1OB(O)[C@@H](NC(=O)[C@H](NC(=O)N1CCN(C3CCN(C(=O)c4cccnc4)CC3)C1=O)c1cc(F)c(O)c(O)c1Cl)C2 [Example 460]	A. baumannii CDC-0033	MIC	< 1 µg/mL
CN(CCN1CCN(C(=O)N[C@@H](C(=O)N[C@H]2Cc3ccc(F)c(C(=O)O)c3OB2O)c2cc(F)c(O)c(O)c2Cl)C(=O)C1=O)Cc1nccs1 [Example 200]	A. baumannii CDC-0033	MIC	2 to 4 µg/mL

Q: What measured MIC goes with O=C(NCCCS(=O)(=O)N1CCN(C(=O)N[C@H](C(=O)N[C@H]2Cc3ccc(F)c(C(=O)O)c3OB2O)c2ccc(P(=O)(O)O)cc2)C1=O)c1ccc(O)c(O)c1Cl (single isomer, unassigned) [Example 169] ?
Result: > 128 µg/mL

Q: Same again, this time with O=C(NCCCN1CCN(C(=O)NC(C(=O)N[C@H]2Cc3ccc(F)c(C(=O)O)c3OB2O)c2cc(F)c(O)c(O)c2Cl)C1=O)c1ccc(O)cc1 (some centres unmarked) [Example 280]
Result: 2 to 4 µg/mL

* * *

Listing: MIC of selected compounds
system: N. gonorrhoeae WHO G; assay: Liquid broth MIC in Fastidious broth; conditions: Neisseria gonorrhoeae, read-out: Minimum Inhibitory Concentration, WHO G

Worked cases, MIC given:
COMPOUND	MIC
O=C(O)c1c(F)ccc2c1OB(O)[C@@H](NC(=O)C(NC(=O)N1CCN(Cc3ccc(O)c(O)c3Cl)C(=O)C1=O)c1cc(F)c(O)c(O)c1Cl)C2 (stereo partly shown)	> 64 µg/mL
O=C(NCCCN1CCN(C(=O)N[C@H](C(=O)N[C@H]2Cc3ccc(F)c(C(=O)O)c3OB2O)c2cc(F)c(O)c(O)c2Cl)C1=O)c1cccc(O)c1	> 64 µg/mL
O=C(NCCCN1CCN(C(=O)N[C@H](C(=O)N[C@H]2Cc3ccc(F)c(C(=O)O)c3OB2O)c2cc(F)c(O)c(O)c2Cl)C1=O)c1ccccc1	> 64 µg/mL
O=C(NCCN1CCN(C(=O)N[C@@H](C(=O)N[C@H]2Cc3ccc(F)c(C(=O)O)c3OB2O)c2cc(F)c(O)c(O)c2Cl)C1=O)Nc1ccc(O)cc1	4 to 8 µg/mL
O=C(NCCCS(=O)(=O)N1CCN(C(=O)NC(C(=O)N[C@H]2Cc3ccc(F)c(C(=O)O)c3OB2O)c2cc(F)c(O)c(O)c2Cl)C1=O)c1ccncc1 (stereo partly shown)	16 to 32 µg/mL
O=C(NCCCN1CCN(C(=O)NC(C(=O)N[C@H]2Cc3ccc(F)c(C(=O)O)c3OB2O)c2cc(F)c(O)c(O)c2Cl)C1=O)c1cccnc1 (stereo partly shown)	16 to 32 µg/mL

Next up:
Q: What measured MIC goes with O=C(NCCN1CCN(C(=O)NC(C(=O)N[C@H]2Cc3ccc(F)c(C(=O)O)c3OB2O)c2cc(F)c(O)c(O)c2Cl)C1=O)Nc1ccncc1 (stereo partly shown) ?
Result: > 64 µg/mL

* * *

system: P. aeruginosa ATCC 35151; experiment: microbe, parasite or virus in culture; assay type: cell-based; settings: Pseudomonas aeruginosa, ATCC35151, read-out: Minimum inhibitory concentration, P. aeruginosa ATCC 35151
Listing: MIC of selected compounds

Worked cases, MIC given:
COMPOUND	REPORTED
O=C(O)c1c(F)ccc2c1OB(O)[C@@H](NC(=O)C(NC(=O)N1CCN(C3CCN(C(=O)Nc4cc(O)ccc4F)CC3)C(=O)C1=O)c1cc(F)c(O)c(O)c1Cl)C2 (stereo partly drawn)	< 1 µg/mL
O=C(NCCN1CCN(C(=O)NC(C(=O)N[C@H]2Cc3ccc(F)c(C(=O)O)c3OB2O)c2cc(F)c(O)c(O)c2Cl)C1=O)Nc1ccncc1 (stereo partly drawn)	< 1 µg/mL

Next up:
Q: What measured MIC goes with O=C(CN1CCN(C(=O)N[C@@H](C(=O)N[C@H]2Cc3ccc(F)c(C(=O)O)c3OB2O)c2cc(F)c(O)c(O)c2Cl)C(=O)C1=O)NCc1nccs1 ?
Result: < 1 µg/mL
